The values you see were collected from PubChem BioAssay (NCI).

- Test system: MDA-MB-468 breast
- PROTOCOL_DETAILS: NCI-60 one-dose screen, 48 h (100 = growth as untreated, 0 = no growth, -100 = all killed)
- REPORTED_CONDITIONS: 10 µM unless noted
- Method: Growth inhibition of the MDA-MB-468 human Breast tumor cell line is measured as a screen for anti-cancer activity. Cells are grown in 96 well plates and exposed to the test compound for 48 hours. Compounds are tested at a single concentration, which is 10^-5 M for most compounds. The reported endpoint is percent growth (GI% or GIPRCNT), where numbers from 0 - 100% represent growth inhibition, and numbers from -100% - 0 represent cell death. […]
The panel holds about 83,000 compounds, 20% with a hit somewhere; the sample as a whole holds those more often.
Mark TRUE only when growth stays strictly below 30%. Values equal to the cut-off are FALSE.

compound=COc1cc2oc(-c3ccc(O)cc3)cc(=O)c2c(O)c1-c1c(OC)cc(O)c2c(=O)cc(-c3ccc(O)cc3)oc12 label_value=FALSE
compound=C=CCN=c1sc2c(n1NC(=O)c1cc3ccc1CCc1ccc(cc1)CC3)C(=O)c1ccccc1C2=O label_value=TRUE
compound=CCN1CCN(c2nc(NCCNc3ccnc4cc(Cl)ccc34)c3ccccc3n2)CC1 label_value=TRUE
compound="COC(=O)C1(C(=O)OC)C2C(=O)C3C(C21)C3(C(=O)OC(C)(C)C)C(=O)OC(C)(C)C (centres undefined)" label_value=FALSE
compound="CC(=O)Oc1ccc(C23c4ccccc4C2(OC(C)=O)c2cc(OC(C)=O)ccc23)cc1 (centres undefined)" label_value=TRUE
compound="CC(C)(C)CC(C)(C)n1nnnc1C(Nc1nccs1)c1cc2cccc3ccc4cccc1c4c32 (centres undefined)" label_value=TRUE
compound=CN1CCN(CC#CCNC(=O)[C@]23CCC(C)(C)C[C@H]2C2=CC[C@@H]4[C@@]5(C)Cc6c([nH]c7ccccc67)C(C)(C)[C@@H]5CC[C@@]4(C)[C@]2(C)CC3)CC1 label_value=FALSE
compound=N=c1sc(Cc2ccc(Cl)cc2)cn1CC(=O)c1ccc(F)cc1 label_value=FALSE
compound="COC(=O)/C=C1/CCCCC1(C)C(=O)OC (centres undefined)" label_value=FALSE
compound=O=C(O)CCCn1c(SCc2c(Cl)cccc2Cl)nc2ccsc2c1=O label_value=TRUE
compound=CCCCCCCCCCCC[n+]1ccc(CCCCCCCCC)cc1 label_value=TRUE
compound=C=CCCCCOc1ccccc1-c1cnc(OCCCCC=C)n1C label_value=TRUE
compound=CCCCCCCCn1ccc2cc(NC(=O)Cn3cc(CN4CCCC4)nn3)ccc21 label_value=TRUE
compound=COc1ccc(Cl)cc1NC(=O)c1cc2c([nH]1)-c1nc(NC(=O)C(C)C)sc1CC2 label_value=FALSE
compound="CC1(c2ccccc2O)NN=C(/N=C/c2cccc([N+](=O)[O-])c2)N1C(Cc1c[nH]c2ccccc12)C(=O)O (centres undefined)" label_value=FALSE
compound=O=c1ccc(-c2nc(N3CCOCC3)c3ccccc3n2)c[nH]1 label_value=FALSE
compound="CCC(=O)OC1=CN2C(=NC(c3ccc(N)cc3)=CC2c2cc(OC)c(OC)c(OC)c2)S1 (centres undefined)" label_value=TRUE
compound=Cc1nc(Nc2nc3ccccc3o2)nc(-c2cccc([N+](=O)[O-])c2)c1C(=O)Nc1ccc(F)c(Cl)c1 label_value=TRUE
compound=CCCCCCCCCCCCOC(=O)/C=C\C(=O)NC(N)=O label_value=FALSE
compound=CC(=O)Nc1cc(N2CCOCC2)c2nc(NC(=O)c3[nH]c(C)c(Cl)c3Cl)sc2c1 label_value=FALSE
compound=Clc1ccc2sc(-c3ccccc3)nc2c1 label_value=FALSE
compound=CNC(=O)c1cc(Oc2ccc3nc(NC(=O)c4cc(N5CCOCC5)cc(C(F)(F)F)c4)sc3c2)ccn1 label_value=FALSE
compound="COc1cc(C2=NN(C=O)C(c3cccc(Nc4ccnc5cc(C(F)(F)F)ccc45)c3)C2)cc(OC)c1OC (centres undefined)" label_value=FALSE
compound=CCN(CC)C(=S)SCCO label_value=FALSE
compound=Cn1c(=O)c2[nH]c(Cc3ccc4c(c3)OCO4)nc2n(C)c1=O label_value=FALSE
compound=COc1cc(Cn2c(SCC(=O)Nc3ccc(Cl)cc3)nc3ccccc3c2=O)cc(OC)c1OC label_value=FALSE
compound=O=C(Nc1ccc(C(=O)Nc2ccc(C3=NCCCN3)cc2)cc1)Nc1ccc(C2=NCCCN2)cc1 label_value=FALSE
compound=CC(C)Cn1c2c(c(=S)[nH]c1=O)CCC2 label_value=FALSE
compound=Fc1ccc(Nc2nc3nonc3nc2Nc2ccc(I)cc2)cc1 label_value=TRUE
compound=O=S(=O)(CC(O)(c1ccccc1)c1ccccc1)CC(O)(c1ccccc1)c1ccccc1 label_value=FALSE
compound=COC(=O)c1ccc2c(c1)nc(-c1cc3ccccc3[nH]c1=O)n2-c1cc(C(C)(C)C)[nH]n1 label_value=FALSE
compound=N#C/C(=C\c1ccc(Br)cc1)n1nnc2cc(Cl)c(Cl)cc21 label_value=TRUE
compound=Cc1cccc(/C=N/n2c(-c3ccc(Cl)cc3)nc3c(Br)cc(Br)cc3c2=O)c1 label_value=FALSE
compound=Cc1ccc(NC(=O)Cn2cc(CN3CCN(c4ccnc5cc(Cl)ccc45)CC3)nn2)cc1 label_value=FALSE
compound="C=CCSSc1ncnc2c1ncn2C1OC(CO)C(O)C1O (centres undefined)" label_value=TRUE
compound=Cc1ccc(Oc2nc3ccccc3cc2-c2nnc(Cn3c(COc4ccccc4)nc4ccccc43)o2)cc1 label_value=FALSE
compound=COc1cc(OC)cc(C(=O)Nc2cc(-c3cccnc3)nc(NCCCN3CCOCC3)n2)c1 label_value=FALSE
compound=COc1ccc2nc3cc(Cl)ccc3c(NCCCNCCO)c2c1 label_value=TRUE
compound=COc1ccc(Cn2cc(Cn3cc(C=C4C(=O)NC(=O)NC4=O)c4ccccc43)nn2)cc1 label_value=TRUE

* * *

- Tested on: MDA-MB-468 breast
- PROTOCOL_DETAILS: NCI-60 one-dose screen, 48 h
- REPORTED_CONDITIONS: 10 µM unless noted
This is part of a sample that, as a whole, favours compounds with a hit. Of some 83,000 tested, about 20% had one in any assay. The source made the active and inactive calls. The calls were made as follows: active = growth percent below 10; inactive = the rest.
Labels: active, inactive

molecule=O=C(Nc1cccc(-n2cc(-c3ccncc3)c(-c3ccc(O)c(Cl)c3)n2)c1)Nc1ccc(Cl)c(Cl)c1 label_value=inactive
molecule=CC(=O)[C@@H]1CC[C@]2(C(=O)O)CC[C@]3(C)[C@H](CC[C@@H]4[C@@]5(C)Cc6c([nH]c7ccccc67)C(C)(C)[C@@H]5CC[C@]43C)[C@@H]12 label_value=inactive
molecule="NC(CCC(=O)NC(CS)C(=O)NCC(=O)O)C(=O)O (stereo not given)" label_value=inactive
molecule=CN(C)CCCOc1c2ccc(Cl)cc2nc2c1oc1ccc(Cl)cc12 label_value=active
molecule="COc1cc2nc(Cl)nc(Nc3cccc(C4=Nc5c(N)nc(N)nc5NC(c5ccc(Cl)cc5)C4)c3)c2cc1OC (stereo not given)" label_value=inactive
molecule=N#Cc1c(N)c(C(=O)c2ccc3c(c2)OCCO3)n2c1CCCC2 label_value=inactive
molecule="COc1cc(C2NC(c3ccc(Cl)cc3)C(C)C(=NC(=O)c3cnccn3)C2C)cc(OC)c1OC (stereo not given)" label_value=inactive
molecule=CSc1nc(N)c(N)c(N)n1 label_value=inactive
molecule=COc1cc(N=Cc2sc(Nc3nccs3)nc2O)cc(OC)c1OC label_value=inactive
molecule=O=C1/C(=C/c2ccccc2[N+](=O)[O-])COc2ccc(O)c(O)c21 label_value=active

* * *

- System: MDA-MB-468 breast
- PROTOCOL_DETAILS: NCI-60 one-dose screen, 48 h
- REPORTED_CONDITIONS: 10 µM unless noted
The panel holds about 83,000 compounds, 20% with a hit somewhere; the sample as a whole holds those more often. Active and inactive are the calls of the source. Rule for the calls: active = growth percent below 10; inactive = the rest.
Labels: 1.0 = active, 0.0 = inactive

compound=Cc1cccc2c(=O)c3c(sc12)c(NCc1ccccc1)nc1ccccc13 label_value=1.0
compound=C[C@H]1[C@H](C)CC[C@]2(C(=O)OCCCC[P+](c3ccccc3)(c3ccccc3)c3ccccc3)CC[C@]3(C)C(=CC[C@@H]4[C@@]5(C)CC[C@H](OC(=O)C(Cl)Cl)C(C)(C)[C@@H]5CC[C@]43C)[C@H]12 label_value=1.0
compound=CNCCCNc1nc2ccccc2c2c(=O)c3cc(F)ccc3sc12 label_value=1.0
compound=CCOC(=O)c1cc(/C(=N\O)c2cc(OC)c(OC)c(OC)c2)n2c(C)cccc12 label_value=0.0
compound=C=CCNc1ccc2c3c(cccc13)C(=O)N(N1C(=O)c3cccc4cccc(c34)C1=O)C2=O label_value=0.0
compound=COc1cccc(NC(=O)c2cccc(-c3cc(=O)c4c(OC)c(OC)c(OC)cc4o3)c2)c1 label_value=0.0
compound="C=C(CNCCO)[C@@H]1CC[C@]2(CO)CC[C@]3(C)[C@H](CC[C@@H]4[C@@]5(C)CCC(N)C(C)(C)[C@@H]5CC[C@]43C)[C@@H]12 (some centres undefined)" label_value=1.0
compound=C=CCNCCCN1C(=O)c2ccc3c4c(ccc(c24)C1=O)C(=O)N(CCCNCC=C)C3=O label_value=1.0
compound=C/C(=N\NC(=O)c1ccccc1O)c1cccc(/C(C)=N/NC(=O)c2ccccc2O)n1 label_value=0.0
compound=CCOC(=O)c1c2c(n3ccc(NC(=O)CCN4CCOCC4)cc13)C(=O)c1ncccc1C2=O label_value=0.0
compound=CCCCCN1C(=O)CCC1=O label_value=0.0
compound=COC(=O)c1cnc2c(c1)Oc1ccccc1-c1ccnn1-2 label_value=0.0
compound="COc1ccc(-c2cc(C(=O)N3N=C(c4ccc(N)cc4)CC3c3ccccc3)c3ccccc3n2)cc1 (centres undefined)" label_value=0.0
compound=Cc1[nH]c(-c2nc3ccccc3[nH]2)c(C)c1C(=O)N1CCOCC1 label_value=0.0
compound=Nc1c(C(=O)Nc2cccc3cnccc23)sc2nc3c(cc12)C(=O)CCC3 label_value=0.0
compound=CC(C)OC(=O)c1ccc2n1CCCc1cnc(Nc3ccccc3)nc1-2 label_value=0.0
compound=O=c1cc(-c2ccc(Cl)cc2)[nH]c2ccccc12 label_value=0.0
compound=COc1ccc(C(=O)c2cc(C)c(OC)c(C)c2)cc1OC(=O)CCl label_value=0.0
compound="CN(C)c1ncnc2c1ccn2C1OC(CO)C(O)C1O (centres undefined)" label_value=1.0
